assay-overview: Long-term stability in plasma samples at -80°C
Assay type: in vitro ADME, rat
conditions: plasma, -80°C, 7 days, medium concentration level (0.702-1.558 µmol·L-1)
reported-metric: Long-term stability (%)

{"columns": ["compound", "reported-metric", "numeric-value"],
 "data": [
  ["CN(C(=S)NN=C(c1ccccn1)c1ccccn1)C1CCCCC1 [DpC]", "Long-term stability", 87.76],
  ["CNC(=S)NN=C(c1ccccn1)c1ccccn1 [Dp4mT]", "Long-term stability", 90.83],
  ["CN(C)C(=S)NN=C(c1ccccn1)c1ccccn1 [Dp44mT]", "Long-term stability", 108.06],
  ["CN(C=NN=C(c1ccccn1)c1ccccn1)C1CCCCC1 [DpC-A]", "Long-term stability", 105.54]
]}

----------
assay-overview: Pharmacokinetics after single i.v. administration to rats (plasma, UHPLC-MS/MS)
Type: in vivo, Wistar rats
conditions: male, Wistar, rat, plasma, iv, 2 mg/kg, rats, i.v. 2 mg·kg^−1, two-compartment population model, Bayesian estimates, mean ± S.D.; read-out: AUC (zero to infinity)
reported-metric: AUC(0-inf) (µM·h)

1. CN(C)C(=S)NN=C(c1ccccn1)c1ccccn1 [Dp44mT]
2. CN(C(=S)NN=C(c1ccccn1)c1ccccn1)C1CCCCC1
Two entries are listed, 1 and 2 . Which one carries the higher AUC(0-inf)? Return value: the label identifying the chosen record.
2
(2: 37.2 µM·h, 1: 1.66 µM·h)

----------
assay-overview: Long-term stability in plasma samples at -80°C
Format: in vitro ADME, rat
conditions: plasma, -80°C, 7 days, low concentration level (0.035-0.156 µmol·L-1)
reported-metric: Long-term stability (%)

{"columns": ["molecule", "reported-metric", "numeric-value"],
 "data": [
  ["CN(C)C(=S)NN=C(c1ccccn1)c1ccccn1 [Dp44mT]", "Long-term stability", 112.56],
  ["CN(C=NN=C(c1ccccn1)c1ccccn1)C1CCCCC1 [DpC-A]", "Long-term stability", 87.83],
  ["CN(C(=S)NN=C(c1ccccn1)c1ccccn1)C1CCCCC1 [DpC]", "Long-term stability", 85.12],
  ["CNC(=S)NN=C(c1ccccn1)c1ccccn1 [Dp4mT]", "Long-term stability", 94.78]
]}

----------
assay-overview: Pharmacokinetics after single i.v. administration to rats (plasma, UHPLC-MS/MS)
Assay type: in vivo, Wistar rats
conditions: male, Wistar, rat, plasma, iv, 2 mg/kg, rats, i.v. 2 mg·kg^−1, individual values, mean ± S.D.; DpC Group 1 only; read-out: Tmax (observed, individual) (converted)
Method: Male Wistar rats (230-310 g; n = 22) obtained from Velaz (Czech Republic) were kept in an air-conditioned room under a 12 h light-dark cycle, constant temperature and humidity and had free access to water and a standard laboratory pellet diet for rodents. […] Initially, for both compounds, rats (n = 2, in each group) were used for the in-vivo investigation of the thiosemicarbazone metabolites and also the preparation of the quantitative analytical method. […]
reported-metric: Tmax (min)

{"columns": ["molecule", "Tmax (min)"],
 "data": [
  ["CN(C)C(=S)NN=C(c1ccccn1)c1ccccn1 [Dp44mT]", 5],
  ["CN(C(=S)NN=C(c1ccccn1)c1ccccn1)C1CCCCC1", 4]
]}

----------
assay-overview: Pharmacokinetics after single i.v. administration to rats (plasma, UHPLC-MS/MS)
Type: in vivo, Wistar rats
conditions: male, Wistar, rat, plasma, iv; rats, i.v. 2 mg·kg^−1, non-compartmental analysis; read-out: Vz (apparent volume of distribution)
reported-metric: Vd (L/kg)

1. CN(C)C(=S)NN=C(c1ccccn1)c1ccccn1 [Dp44mT]
2. CN(C(=S)NN=C(c1ccccn1)c1ccccn1)C1CCCCC1
I would appreciate it if you could say which entry, 1 or 2 , has the lower Vd value. Provide the label of your selected option as the answer.
2

----------
assay-overview: Long-term stability in plasma samples at -80°C
Type: in vitro ADME, rat
conditions: plasma, -80°C, 7 days, high concentration level (2.105-3.115 µmol·L-1)
reported-metric: Long-term stability (%)

{"columns": ["molecule", "reading-unit", "Long-term stability"],
 "data": [
  ["CN(C=NN=C(c1ccccn1)c1ccccn1)C1CCCCC1", "%", 104.23],
  ["CN(C(=S)NN=C(c1ccccn1)c1ccccn1)C1CCCCC1", "%", 112.39],
  ["CNC(=S)NN=C(c1ccccn1)c1ccccn1", "%", 90.82],
  ["CN(C)C(=S)NN=C(c1ccccn1)c1ccccn1 [Dp44mT]", "%", 94.93]
]}

----------
assay-overview: Post-preparative stability in the autosampler at 10°C
Format: physicochemical
conditions: autosampler 10°C, 24 h, medium concentration level (0.702-1.558 µmol·L-1)
reported-metric: Post-preparative stability (%)

{"columns": ["compound", "Post-preparative stability (%)"],
 "data": [
  ["CN(C(=S)NN=C(c1ccccn1)c1ccccn1)C1CCCCC1 [DpC]", 95.68],
  ["CN(C=NN=C(c1ccccn1)c1ccccn1)C1CCCCC1 [DpC-A]", 93.89],
  ["CN(C)C(=S)NN=C(c1ccccn1)c1ccccn1 [Dp44mT]", 95.92],
  ["CNC(=S)NN=C(c1ccccn1)c1ccccn1 [Dp4mT]", 111.72]
]}

----------
assay-overview: Pharmacokinetics after single i.v. administration to rats (plasma, UHPLC-MS/MS)
Type: in vivo, Wistar rats
conditions: male, Wistar, rat, plasma, iv, 2 mg/kg, rats, i.v. 2 mg·kg^−1, non-compartmental analysis; read-out: AUC (zero to infinity)
reported-metric: AUC(0-inf) (µM·h)

{"columns": ["molecule", "AUC(0-inf) / µM·h"],
 "data": [
  ["CN(C(=S)NN=C(c1ccccn1)c1ccccn1)C1CCCCC1 [DpC]", 39.8]
]}

P. CNC(=S)NN=C(c1ccccn1)c1ccccn1 [Dp4mT]
Q. CN(C)C(=S)NN=C(c1ccccn1)c1ccccn1 [Dp44mT]
# returns the entry with the larger AUC(0-inf); inputs P and Q Which one? Tell me its label.
Q

----------
assay-overview: Pharmacokinetics after single i.v. administration to rats (plasma, UHPLC-MS/MS)
Format: in vivo, Wistar rats
conditions: male, Wistar, rat, plasma, iv, 2 mg/kg, rats, i.v. 2 mg·kg^−1, individual values, mean ± S.D.; DpC Group 1 only; read-out: Cmax (observed, individual)
reported-metric: Cmax (µM)

1. CN(C(=S)NN=C(c1ccccn1)c1ccccn1)C1CCCCC1
2. CN(C)C(=S)NN=C(c1ccccn1)c1ccccn1 [Dp44mT]
Determine, for 1 and 2 , which has the greater value of Cmax. Answer format: the label of the selected item.
1

----------
assay-overview: Post-preparative stability in the autosampler at 10°C
Assay type: physicochemical
conditions: autosampler 10°C, 24 h, high concentration level (2.105-3.115 µmol·L-1)
reported-metric: Post-preparative stability (%)

{"columns": ["compound", "reading-unit", "Post-preparative stability"],
 "data": [
  ["CN(C(=S)NN=C(c1ccccn1)c1ccccn1)C1CCCCC1", "%", 107.34],
  ["CNC(=S)NN=C(c1ccccn1)c1ccccn1", "%", 95.44],
  ["CN(C=NN=C(c1ccccn1)c1ccccn1)C1CCCCC1", "%", 99.55],
  ["CN(C)C(=S)NN=C(c1ccccn1)c1ccccn1 [Dp44mT]", "%", 98.90]
]}

----------
assay-overview: Post-preparative stability in the autosampler at 10°C
Type: physicochemical
conditions: autosampler 10°C, 24 h, low concentration level (0.035-0.156 µmol·L-1)
reported-metric: Post-preparative stability (%)

{"columns": ["molecule", "Post-preparative stability, %"],
 "data": [
  ["CNC(=S)NN=C(c1ccccn1)c1ccccn1", 100.24],
  ["CN(C=NN=C(c1ccccn1)c1ccccn1)C1CCCCC1", 101.11],
  ["CN(C)C(=S)NN=C(c1ccccn1)c1ccccn1 [Dp44mT]", 93.70],
  ["CN(C(=S)NN=C(c1ccccn1)c1ccccn1)C1CCCCC1", 97.48]
]}

----------
assay-overview: Pharmacokinetics after single i.v. administration to rats (plasma, UHPLC-MS/MS)
Type: in vivo, Wistar rats
conditions: male, Wistar, rat, plasma, iv, 2 mg/kg, rats, i.v. 2 mg·kg^−1, non-compartmental analysis; Dp4mT = metabolite after Dp44mT dosing; read-out: Tmax (converted)
reported-metric: Tmax (min)

{"columns": ["molecule", "Tmax [min]"],
 "data": [
  ["CN(C(=S)NN=C(c1ccccn1)c1ccccn1)C1CCCCC1", 4]
]}

A. CN(C)C(=S)NN=C(c1ccccn1)c1ccccn1 [Dp44mT]
B. CNC(=S)NN=C(c1ccccn1)c1ccccn1
# argmax over Tmax for candidates A and B Mark your selection by writing its label.
B
(B: 10 min, A: 4 min)

----------
assay-overview: Pharmacokinetics after single i.v. administration to rats (plasma, UHPLC-MS/MS)
Assay type: in vivo, Wistar rats
conditions: male, Wistar, rat, plasma, iv, 2 mg/kg, rats, i.v. 2 mg·kg^−1, non-compartmental analysis; read-out: CL (total plasma clearance) (converted)
reported-metric: clearance (mL/min/kg)

I. CN(C)C(=S)NN=C(c1ccccn1)c1ccccn1 [Dp44mT]
II. CN(C(=S)NN=C(c1ccccn1)c1ccccn1)C1CCCCC1
Problem: Given the entries I and II , determine which has the lower reported clearance. Your choice should be expressed through its label.
II
